run.description: Cytotoxicity in MT-4 cells, MTT method
test.conditions: human, MT-4 cells infected with HIV-1 IIIB
Give measured CC50 at 4 days for each item. Keep answers brief.
One number for each entry, in µg/mL.

[[record]]
compound = "[N-]=[N+]=NC1(CO)OC(n2cc(F)c3c(N)ncnc32)C(F)C1O (centres unmarked)"
measure_name = "CC50 at 4 days"
measured_number = 28.3

[[record]]
compound = "N#CC1(CO)OC(n2cnc3c(N)ncnc32)C(F)C1O (centres unmarked)"
measure_name = "CC50 at 4 days"
measured_number = 38.3

[[record]]
compound = "N#CC1(CO)OC(n2cc(F)c3c(O)ncnc32)C(F)C1O (centres unmarked)"
measure_name = "CC50 at 4 days"
measured_number = 48.5

[[record]]
compound = "CC1(CO)OC(n2ccc(O)nc2=O)C(F)C1O (centres unmarked)"
measure_name = "CC50 at 4 days"
measured_number = 31.2


Report CC50 at 4 days for each item below.
1. C#CC1(CO)OC(n2cnc3c(F)ncnc32)C(F)C1O (centres unmarked)
2. C#CC1(CO)OC(n2ccc(N)nc2=O)C(F)C1O (centres unmarked)
3. CC1(CO)OC(n2cnc3c(O)ncnc32)C(F)C1O (centres unmarked)
4. C#CC1(CO)OC(n2cc(F)c3c(N)ncnc32)C(F)C1O (centres unmarked)

Result:
[43.8, 43.6, 35.1, 41.3]

----------
run.description: Cytotoxicity in MT-4 cells, MTT method
test.conditions: human, uninfected MT-4 cells
measure.name: CC50 at 4 days (µg/mL)
Give bare numbers, in µg/mL.

[[record]]
compound = "C#CC1(CO)OC(n2cnc3c(F)ncnc32)C(F)C1O (stereo not shown)"
measure_name = "CC50 at 4 days"
quantity_unit = "µg/mL"
measured_number = 39.8


Could you now consider this next compound?
Request: Which CC50 at 4 days is reported for this compound? C#CC1(CO)OC(n2ccc(N)nc2=O)C(F)C1O (stereo not shown)
Result: 40.9

----------
run.description: Cytotoxicity in MT-4 cells, MTT method
test.conditions: human, MT-4 cells infected with HIV-1 IIIB
Give measured CC50 at 4 days for each item. Keep answers brief.

[[record]]
molecule = "Cc1ccnc2c1NC(=O)c1cccnc1N2C1CC1 [NVP, Nevirapine, reference compound]"
measure_name = "CC50 at 4 days"
result = "> 12.5 µg/mL"


Report CC50 at 4 days for each item below.
1. [N-]=[N+]=NC1(CO)OC(n2ccc(N)nc2=O)C(F)C1O (stereo not drawn)
2. Cc1cn([C@H]2C[C@H](N=[N+]=[N-])[C@@H](CO)O2)c(=O)[nH]c1=O [AZT, Zidovudine, reference compound]

Result:
1: > 100 µg/mL; 2: > 0.625 µg/mL
